system: CP217; assay: qHTS profiling for inhibitors of Plasmodium falciparum proliferation (AID 504749); note: nearly all actives have a fitted effect of over 60% in size; conditions: P. falciparum in erythrocytes, SYBR Green DNA, 72 h; series mostly up to 28.7 µM
Records with an inconclusive call do not appear. The source made the active and inactive calls. Calls come from the whole dose curve; as a rule, active = well fitted inhibition curve with a large enough effect; inconclusive = small, poorly fitted or top-dose-only effect; inactive = flat fitted curve, though single readings scatter.
// classify into active, inactive

Study these solved cases before continuing.
{"MOLECULE": "CC(=O)Oc1ccc(C(c2ccc(OC(C)=O)cc2)c2ccccn2)cc1", "CAT": "inactive"}
{"MOLECULE": "C[C@H]1C[C@H]2[C@@H]3CCC4=CC(=O)C=C[C@]4(C)[C@@]3(Cl)[C@@H](O)C[C@]2(C)[C@@]1(O)C(=O)CO", "CAT": "inactive"}
{"MOLECULE": "CCN1CCCC1=O", "CAT": "inactive"}
{"MOLECULE": "COc1ccc(C2C(=O)c3ccccc3C2=O)cc1", "CAT": "inactive"}

Dear colleague, could you share the recorded outcome for Oc1c(Cl)cc(Cl)cc1Sc1cc(Cl)cc(Cl)c1O when you have a moment?
inactive

Input CC(C)(C)CC(C)(C)c1ccc(OCCOCC[N+](C)(C)Cc2ccccc2)cc1
active

Another: COc1cc(-c2ccc(=O)[nH]n2)ccc1OC(F)F
inactive
